Entry source: patent US8168651B2

Target: recombinant human PIM1 (Homo sapiens (Human), UniProt P11309)
Sequence (P11309 whole entry): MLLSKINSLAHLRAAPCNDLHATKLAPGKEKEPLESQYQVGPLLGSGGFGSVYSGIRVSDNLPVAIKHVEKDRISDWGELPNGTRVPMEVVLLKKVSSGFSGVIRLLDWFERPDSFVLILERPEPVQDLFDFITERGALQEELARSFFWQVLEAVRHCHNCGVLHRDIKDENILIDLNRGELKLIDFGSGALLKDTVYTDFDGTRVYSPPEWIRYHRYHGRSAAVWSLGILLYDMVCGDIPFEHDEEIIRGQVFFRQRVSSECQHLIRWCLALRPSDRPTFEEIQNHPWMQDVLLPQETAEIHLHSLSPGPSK
Test: PIM-1 kinase activity in cell-free in vitro assay
Format: biochemical
Conditions: 500 nM compound, cell-free assay; read-out: PIM-1: % inh 500 nM
ATTRIBUTE MEASURED: inhibition at 0.5 µM

[[record]]
compound = "N#Cc1ccc2c(c1)[nH]c(=O)c1cscc12"
tested_target = "recombinant human PIM1 (Homo sapiens (Human), UniProt P11309)"
attribute_measured = "inhibition at 0.5 µM"
observed_result = "-26.7%"


Return value of inhibition at 0.5 µM for input `CN1CCC(Nc2nc3cc(C#N)ccc3c3sccc23)CC1` , no commentary. 59.1%

Return value of inhibition at 0.5 µM for input CCN1CCCC1CNc1nc2cc(-c3nnn[nH]3)ccc2c2sccc12 (stereo not shown) , no commentary. 103%

====

System: MV-4-11
Test: Cell proliferation modulatory activity, MV-4-11
Format: cell-based
Conditions: Homo sapiens, MV4-11; Table 45; read-out: MV-4-11 IC50
pIC50: −log10 of the molar value.
Listed here: items and their measured pIC50.

The following molecules have reported results that may help.
[[record]]
compound_string = "NC(=O)c1cccc2c1nc(Nc1cccc(Cl)c1)c1cnccc12"
tested_target = "MV-4-11"
attribute_measured = "pIC50"
observed_result = "< 5.00"

[[record]]
compound_string = "NC(=O)c1cccc2c1nc(Nc1ccc(F)cc1)c1ccncc12"
tested_target = "MV-4-11"
attribute_measured = "pIC50"
observed_result = "> 7.00"

[[record]]
compound_string = "FC(F)(F)Oc1cccc(Nc2nc3c(-c4nnc[nH]4)cccc3c3cnccc23)c1"
tested_target = "MV-4-11"
attribute_measured = "pIC50"
observed_result = "> 6.30"

[[record]]
compound_string = "Fc1ccc(Nc2nc3c(-c4nnc[nH]4)cccc3c3cnccc23)cc1"
tested_target = "MV-4-11"
attribute_measured = "pIC50"
observed_result = "> 6.30"

[[record]]
compound_string = "c1ccc(CCNc2nc3c(-c4nc[nH]n4)cccc3c3cnccc23)cc1"
tested_target = "MV-4-11"
attribute_measured = "pIC50"
observed_result = "> 6.30"


Return value of pIC50 for input `Fc1cc(F)cc(Nc2nc3c(-c4nnc[nH]4)cccc3c3cnccc23)c1` , no commentary. > 6.30

====

Listed here: items and their measured inhibition at 0.5 µM.
Target: recombinant human PIM1 (Homo sapiens (Human), UniProt P11309)
Assay: PIM-1 kinase activity in cell-free in vitro assay
Type: biochemical
Details: 500 nM compound, cell-free assay; read-out: PIM-1: % inh 500 nM
State the answer as a number, implicitly in %.

The following compounds have reported results that may help.
[[record]]
compound = "CN1CCCC(Nc2nc3cc(C#N)ccc3c3sccc23)C1 (stereo not shown)"
observed_result = 20.8

[[record]]
compound = "O=C(O)c1ccc2c(c1)nc(NC1CC1)c1nc(Nc3ccccc3)ncc12 [drawing 1618]"
observed_result = 46

[[record]]
compound = "O=C(O)c1ccc2c(c1)nc(Nc1ccccc1Oc1ccccc1)c1ccncc12"
observed_result = 25

[[record]]
compound = "CNC(=O)c1ccc2c(c1)nc(NC1CC1)c1nc(NC3CC3)ncc12"
observed_result = -16.2

[[record]]
compound = "CNC(=O)c1ccc2c(c1)nc(Nc1cccc(Cl)c1)c1ccncc12"
observed_result = -39.8


Send back recombinant human PIM1 (Homo sapiens (Human), UniProt P11309) inhibition at 0.5 µM of `CC(C)Nc1ncc2c(n1)c(Nc1cccc(Cl)c1)nc1cc(C(=O)O)ccc12` only. -0.505

Send back recombinant human PIM1 (Homo sapiens (Human), UniProt P11309) inhibition at 0.5 µM of `O=C(O)c1ccc2c(c1)nc(Nc1ccccc1)c1nc(NCCCN3CCOCC3)ncc12` only. 33.7

Send back recombinant human PIM1 (Homo sapiens (Human), UniProt P11309) inhibition at 0.5 µM of `O=C(NCc1ccccn1)c1ccc2c(c1)nc(NC1CC1)c1nc(NC3CC3)ncc12` only. -17.1

Send back recombinant human PIM1 (Homo sapiens (Human), UniProt P11309) inhibition at 0.5 µM of `COC(=O)c1ccc2c(c1)nc(N(C)CCc1ccccn1)c1ccncc12` only. -5.84

Send back recombinant human PIM1 (Homo sapiens (Human), UniProt P11309) inhibition at 0.5 µM of `N#Cc1ccc2c(c1)nc(N1CCC(N3CCCC3)CC1)c1ccsc12` only. 35.7

Send back recombinant human PIM1 (Homo sapiens (Human), UniProt P11309) inhibition at 0.5 µM of `N#Cc1ccc2c(c1)nc(NCCN(CCO)CCO)c1ccsc12` only. -17.7
